Every entry's value here was drawn from paper PMC5667506.

target.entity: Hck SH3 domain (Homo sapiens, UniProt P08631)
Construct: The hck SH3 domain was amplified by PCR using Phusion DNA polymerase; GST (N, cleaved yes); made in house; host or cells: E. coli BL21 (DE3)
Sequence (P08631 77-139): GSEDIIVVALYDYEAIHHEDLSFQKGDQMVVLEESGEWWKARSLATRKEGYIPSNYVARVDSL
procedure.details: ITC binding to Hck SH3 domain (two-sets-of-sites fit)
run.parameters: 25 °C, high affinity specific site
measured.parameter: Kd (µM)
Numbers only, in µM.

Any idea what its Kd is? The compound is CC(=O)[O-].CC(=O)[O-].CC(=O)[O-].CC(=O)[O-].[Rh+2].[Rh+2] [Rh2(OAc)4, reference compound] 89

###

Consider the following substances; for each one, report its pKd.
target.entity: Lyn SH3 domain (Homo sapiens, UniProt P07948)
Construct: The lyn SH3 domain was amplified by PCR using Phusion DNA polymerase; GST (N, cleaved yes); made in house; host or cells: E. coli BL21 (DE3)
Sequence (P07948 62-121): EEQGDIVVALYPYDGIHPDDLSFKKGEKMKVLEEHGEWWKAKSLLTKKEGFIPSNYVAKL
procedure.details: ITC binding of metallopeptides to Lyn SH3 domain
run.parameters: 25 °C
Give bare numbers, as −log10 of the molar value.

R5E^Rh: rhodium(II) metallopeptide based on Src-family SH3-binding sequence (VSL12), rhodium at residue 5; catalyst for Yes SH3 modification (VSLAERPLPPLPN; N-terminal acetyl, C-terminal amide): 7.09
N13D^Rh: negative control metallopeptide with the rhodium center too far for histidine interactions (VSLARRPLPPLPD; N-terminal acetyl, C-terminal amide): 5.92
L3E^Rh: rhodium(II) metallopeptide based on Src-family SH3-binding sequence (VSL12), rhodium at residue 3 (VSEARRPLPPLPN; N-terminal acetyl, C-terminal amide): 7.52

Form field: pKd recorded for R6E^Rh: rhodium(II) metallopeptide based on Src-family SH3-binding sequence (VSL12), rhodium at residue 6 (VSLAREPLPPLPN; N-terminal acetyl, C-terminal amide) with Lyn SH3 domain (Homo sapiens, UniProt P07948) (enter value) 6.82

###

Consider the following substances; for each one, report its pKd.
target.entity: Yes SH3 domain (Homo sapiens, UniProt P07947)
Construct: fyn, yes, lck, and src SH3 protein domains were prepared following published procedures; made in house
Sequence (P07947 91-152 limits assumed): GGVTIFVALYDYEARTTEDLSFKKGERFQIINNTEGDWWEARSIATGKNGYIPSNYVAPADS
procedure.details: ITC binding to Yes SH3 domain
run.parameters: Yes SH3, ITC, 25 °C; read-out: SH3 Kd
One number for each entry, as −log10 of the molar value.

Would you please look over these solved cases?
L3E^Rh: rhodium(II) metallopeptide based on Src-family SH3-binding sequence (VSL12), rhodium at residue 3 (VSEARRPLPPLPN; N-terminal acetyl, C-terminal amide): 5.43
AcVELARRPLPPLPN-NH2 (Ac-VELARRPLPPLPN-NH2; also: Glu2 side-chain carboxylate bound to Rh2(OAc)3) [S2E^Rh, rhodium(II) metallopeptide made from S2E peptide (Ac…-NH2) and Rh2(tfa)(OAc)3]: 6.21
N13D^Rh: negative control metallopeptide with the rhodium center too far for histidine interactions (VSLARRPLPPLPD; N-terminal acetyl, C-terminal amide): 6.52

Turning now to a further record.
Any idea what its pKd is? The substance is R5E^Rh: rhodium(II) metallopeptide based on Src-family SH3-binding sequence (VSL12), rhodium at residue 5; catalyst for Yes SH3 modification (VSLAERPLPPLPN; N-terminal acetyl, C-terminal amide) 5.76

###

target.entity: Lyn SH3 domain (Homo sapiens, UniProt P07948)
measured.parameter: Kd (µM)
Answers are plain numbers, in µM.

Any idea what its Kd is? The compound is CC(=O)[O-].CC(=O)[O-].CC(=O)[O-].CC(=O)[O-].[Rh+2].[Rh+2] [Rh2(OAc)4, reference compound] 150

###

target.entity: Lck SH3 domain (Homo sapiens)
Construct: fyn, yes, lck, and src SH3 protein domains were prepared following published procedures; made in house
Sequence (P06239 61-121 limits assumed): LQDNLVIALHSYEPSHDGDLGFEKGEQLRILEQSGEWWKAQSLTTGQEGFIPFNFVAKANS
procedure.details: ITC binding to Lck SH3 domain
run.parameters: 25 °C
Rh2(OAc)3 = dirhodium(II) triacetate, bound to the side-chain carboxylate
measured.parameter: pKd
Answers are plain numbers, as −log10 of the molar value.

Would you please look over these solved cases?
N13D^Rh: negative control metallopeptide with the rhodium center too far for histidine interactions (VSLARRPLPPLPD; N-terminal acetyl, C-terminal amide): 6.62
AcVELARRPLPPLPN-NH2 (Ac-VE(Rh2(OAc)3)LARRPLPPLPN-NH2; also: metal complex: Glu2 carboxylate bound to dirhodium(II) triacetate) [S2E^Rh, rhodium(II) metallopeptide made from S2E peptide (Ac…-NH2) and Rh2(tfa)(OAc)3]: 6.32
P12D^Rh: metallopeptide with the rhodium core moved to the 12th residue (VSLARRPLPPLDN; N-terminal acetyl, C-terminal amide): 7.10

Turning now to a further record.
Any idea what its pKd is? The substance is R6E^Rh: rhodium(II) metallopeptide based on Src-family SH3-binding sequence (VSL12), rhodium at residue 6 (VSLAREPLPPLPN; N-terminal acetyl, C-terminal amide) 5.42
